Target chain: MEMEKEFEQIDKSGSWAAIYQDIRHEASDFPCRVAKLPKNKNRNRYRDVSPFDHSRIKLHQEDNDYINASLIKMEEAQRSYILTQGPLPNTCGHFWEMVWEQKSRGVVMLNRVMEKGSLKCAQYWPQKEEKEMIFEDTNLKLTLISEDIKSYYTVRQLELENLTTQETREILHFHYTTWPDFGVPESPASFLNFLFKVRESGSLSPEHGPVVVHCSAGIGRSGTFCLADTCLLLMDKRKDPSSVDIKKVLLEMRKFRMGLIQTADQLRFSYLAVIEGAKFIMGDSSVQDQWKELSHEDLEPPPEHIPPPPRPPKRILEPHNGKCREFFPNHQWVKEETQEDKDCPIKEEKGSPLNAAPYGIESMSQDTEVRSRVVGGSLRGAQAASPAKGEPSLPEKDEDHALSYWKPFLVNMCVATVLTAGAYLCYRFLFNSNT
ENDPOINT_LABEL: Kd (µM)

COMPOUND	UOM	ENDPOINT_VALUE
O=c1cc(-c2ccc(O)cc2)oc2cc(O[C@@H]3O[C@H](CO)[C@@H](O)[C@H](O)[C@H]3O)cc(O)c12 [Compound 13, apigenin-7-O-β-D-glucopyranoside]	µM	22.1
CC1(C)C=Cc2c(cc(O)c3c2O[C@H](c2ccccc2)[C@H](O)C3=O)O1	µM	370
CC1(C)C=Cc2c(cc(O)c3c(=O)cc(-c4ccc(O)cc4)oc23)O1	µM	72.5

[1] CC1(C)C=Cc2c(cc(O)c3c2O[C@H](c2ccc(O)cc2)[C@@H](O)C3=O)O1
[2] O=C1c2c(O)cc(O)cc2O[C@H](c2ccc(O)cc2)[C@H]1O [Compound 6, dihydrokaempferol]
Input: Response body: label of entry with the larger Kd; valid values 1 , 2 . Answer = label.
Output: 2
(2: 10000 µM, 1: 1110 µM)

----------
Protein target, amino acids: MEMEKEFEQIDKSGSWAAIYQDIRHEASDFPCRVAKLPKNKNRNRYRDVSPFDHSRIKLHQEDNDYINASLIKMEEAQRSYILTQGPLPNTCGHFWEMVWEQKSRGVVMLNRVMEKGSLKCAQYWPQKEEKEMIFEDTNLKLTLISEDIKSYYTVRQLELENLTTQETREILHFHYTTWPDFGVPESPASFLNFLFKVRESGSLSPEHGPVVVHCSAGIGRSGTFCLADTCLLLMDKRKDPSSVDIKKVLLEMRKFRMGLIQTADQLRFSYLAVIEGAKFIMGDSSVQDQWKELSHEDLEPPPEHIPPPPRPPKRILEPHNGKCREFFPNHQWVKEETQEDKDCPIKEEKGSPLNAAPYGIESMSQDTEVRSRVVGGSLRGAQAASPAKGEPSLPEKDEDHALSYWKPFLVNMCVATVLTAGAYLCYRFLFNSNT
pIC50: −log10 of the molar value.
ENDPOINT_LABEL: pIC50

MOLECULE	pIC50
CC1(C)C=Cc2c(cc(O)c3c2O[C@H](c2ccc(O)cc2)[C@@H](O)C3=O)O1 [Compound 5, yukovanol]	5.51

[I] O=c1cc(-c2ccc(O)cc2O)oc2cc(O)cc(O)c12 [Compound 10, norartocarpetin]
[II] CC1(C)C=Cc2c(cc(O)c3c(=O)cc(-c4ccc(O)cc4)oc23)O1 [Compound 7, atalantoflavone]
[III] O=c1cc(-c2ccc(O)cc2)oc2cc(O)cc(O)c12 [Compound 8, apigenin]
[IV] O=C1c2c(O)cc(O)cc2O[C@H](c2ccc(O)cc2)[C@H]1O [Compound 6, dihydrokaempferol]
[V] O=c1cc(-c2ccc(O)cc2)oc2cc(O[C@@H]3O[C@H](CO)[C@@H](O)[C@H](O)[C@H]3O)cc(O)c12 [Compound 13, apigenin-7-O-β-D-glucopyranoside]
Input: Task for the reader: rank each entry by its pIC50, from the minimum upward. Sort the labels as requested; that list is your answer.
Output: IV, III, I, II, V
